Tested on: CYP1A2, CYP2B6, CYP2C8, CYP2C9, CYP2D6, CYP2E1, CYP3A4/5
run_description: Inhibitory DDI evaluation, cocktail incubation in HLM, all probe reactions
Assay type: in vitro ADME
test_conditions: human, pooled human liver microsomes
IC50 at 20 min values for the compounds below.
measurement_kind: IC50 at 20 min

{"compound": "C[C@@H]1CC[C@]2(C(=O)O)CC[C@]3(C)C(=CC[C@@H]4[C@@]5(C)CC[C@H](O)[C@@](C)(CO)[C@@H]5CC[C@]43C)[C@@H]2[C@]1(C)O", "assay_system": "CYP1A2, CYP2B6, CYP2C8, CYP2C9, CYP2D6, CYP2E1, CYP3A4/5", "measurement_kind": "IC50 at 20 min", "val": "> 50 µM"}
{"compound": "C[C@@H]1CC[C@]2(C(=O)O[C@@H]3O[C@H](CO)[C@@H](O)[C@H](O)[C@H]3O)CC[C@]3(C)C(=CC[C@@H]4[C@@]5(C)CC[C@H](O)[C@@](C)(CO)[C@@H]5CC[C@]43C)[C@@H]2[C@]1(C)O [pedunculoside]", "assay_system": "CYP1A2, CYP2B6, CYP2C8, CYP2C9, CYP2D6, CYP2E1, CYP3A4/5", "measurement_kind": "IC50 at 20 min", "val": "> 50 µM"}
